system: Trichoderma virens ATCC 9645; test: growth yield (OD600) with compound + IPBC relative to untreated control; higher = less growth inhibition; conditions: compound concentration: 100 uM; IPBC concentration: 200 ng/ml; 40 h
Where a name gives a salt, the structure may show the parent alone. Hit rate of the full screen: of about 1,300 compounds, about 130 (10%) showed an effect of 50% or more. The sample as a whole holds a higher share of strong results than the screen did.
Reported endpoint: growth yield

1. CN[C@H](CC(C)C)C(=O)N[C@H]1C(=O)N[C@@H](CC(N)=O)C(=O)N[C@H]2C(=O)N[C@H]3C(=O)N[C@H](C(=O)N[C@H](C(=O)O)c4cc(O)cc(O)c4-c4cc3ccc4O)[C@H](O)c3ccc(c(Cl)c3)Oc3cc2cc(c3O[C@@H]2O[C@H](CO)[C@@H](O)[C@H](O)[C@H]2O[C@H]2C[C@](C)(N)[C@H](O)[C@H](C)O2)Oc2ccc(cc2Cl)[C@H]1O [Vancomycin hydrochloride] + CCCCNC(=O)OCC#CI [3-iodo-2-propynyl butylcarbamate (IPBC)]    84.2%
2. CO[C@H]1/C=C/O[C@@]2(C)Oc3c(C)c(O)c4c(c3C2=O)C2=NC3(CCN(CC(C)C)CC3)NC2=C(NC(=O)/C(C)=C\C=C\[C@H](C)[C@H](O)[C@@H](C)[C@@H](O)[C@@H](C)[C@H](OC(C)=O)[C@@H]1C)C4=O [Rifabutin] + CCCCNC(=O)OCC#CI [3-iodo-2-propynyl butylcarbamate (IPBC)]    99.4%
3. O=C(OCCOCCO)c1ccccc1Nc1cccc(C(F)(F)F)c1 [Etofenamate] + CCCCNC(=O)OCC#CI [3-iodo-2-propynyl butylcarbamate (IPBC)]    59.2%
4. O=C(O)c1ccccc1Nc1cccc(C(F)(F)F)c1 [Flufenamic acid] + CCCCNC(=O)OCC#CI [3-iodo-2-propynyl butylcarbamate (IPBC)]    29.1%

The origin of these recorded values is the supplement of paper PMC8007513.
